Origin of values: patent US20230312550A1

- ASSAY TEXT: Metabolic stability in rat hepatocytes (rHep)
- CONDITIONS: n = 1 or geometric mean of n = 2-3
EXPERIMENTAL ENDPOINT: rHep CLint (μL/min/1E6)

a. N#C[C@@H]1CSCN1C(=O)CNC(=O)c1ccnc2ccc(-n3ncc4c3CCCC4)cc12
b. CC(F)(F)C1CN(c2ccc3nccc(C(=O)NCC(=O)N4CSC[C@H]4C#N)c3c2)C1
c. CN1CCC(F)(c2ccc3nccc(C(=O)NCC(=O)N4CSC[C@H]4C#N)c3c2)CC1
d. COCC[C@@H]1COCCN1c1ccc2nccc(C(=O)NCC(=O)N3CSC[C@H]3C#N)c2c1
q: With regard to rHep CLint, arrange the entries in ascending order, please. Present the labels in the sequence the task asks for.
a: c, b, d, a
(c: 1.8 μL/min/1E6, b: 2.9 μL/min/1E6, d: 13 μL/min/1E6, a: 36 μL/min/1E6)

###

pIC50: −log10 of the molar value.
Here we list compounds with their recorded pIC50 when tested on Fibroblast Activation Protein alpha (FAP) (Mus musculus (Mouse), UniProt P97321).
Sequence (P97321 24-761): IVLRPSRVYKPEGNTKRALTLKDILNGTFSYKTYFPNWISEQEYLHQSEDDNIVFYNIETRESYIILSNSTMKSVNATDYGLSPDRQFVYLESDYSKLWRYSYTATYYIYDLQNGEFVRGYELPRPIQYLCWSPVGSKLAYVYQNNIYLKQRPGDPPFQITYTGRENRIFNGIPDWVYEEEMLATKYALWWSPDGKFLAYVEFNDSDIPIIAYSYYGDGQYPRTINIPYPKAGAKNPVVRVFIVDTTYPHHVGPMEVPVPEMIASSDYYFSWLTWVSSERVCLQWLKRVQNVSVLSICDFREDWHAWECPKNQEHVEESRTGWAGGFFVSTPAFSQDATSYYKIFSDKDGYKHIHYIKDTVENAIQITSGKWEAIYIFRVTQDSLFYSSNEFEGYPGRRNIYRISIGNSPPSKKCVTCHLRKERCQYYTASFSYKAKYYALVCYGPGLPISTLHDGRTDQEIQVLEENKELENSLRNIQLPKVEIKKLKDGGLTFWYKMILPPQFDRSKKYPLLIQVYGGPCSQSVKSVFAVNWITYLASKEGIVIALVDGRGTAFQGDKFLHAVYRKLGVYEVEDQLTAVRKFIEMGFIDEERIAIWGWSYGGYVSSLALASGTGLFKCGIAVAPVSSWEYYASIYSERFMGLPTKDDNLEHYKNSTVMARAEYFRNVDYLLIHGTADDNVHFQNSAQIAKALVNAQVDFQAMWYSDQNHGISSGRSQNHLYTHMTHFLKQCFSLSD
EXPERIMENTAL ENDPOINT: pIC50

// known answers, use as guide
MOL SMILES	NUMERIC RESULT
N#C[C@@H]1CSCN1C(=O)CNC(=O)c1ccnc2ccc(-c3ccc(C(F)F)nc3)cc12	8.85
N#C[C@@H]1CSCN1C(=O)CNC(=O)c1ccnc2ccc(N3CCO[C@@H](CF)C3)cc12	8.68
CC1(CF)CN(c2ccc3nccc(C(=O)NCC(=O)N4CSC[C@H]4C#N)c3c2)C1	8.85

I. COC1(C)CN(c2ccc3nccc(C(=O)NCC(=O)N4CSC[C@H]4C#N)c3c2)C1
II. N#C[C@@H]1CSCN1C(=O)CNC(=O)c1ccnc2ccc(N3CC(CF)C3)cc12
III. N#C[C@@H]1CSCN1C(=O)CNC(=O)c1ccnc2ccc(N3CCOCC3)cc12
q: Place the items in sequence of falling pIC50. Present the labels in the sequence the task asks for.
a: III, II, I
(III: 9.74, II: 8.70, I: 8.48)

###

- ASSAY TEXT: Metabolic stability in rat hepatocytes (rHep)
- CONDITIONS: n = 1 or geometric mean of n = 2-3
EXPERIMENTAL ENDPOINT: rHep CLint (μL/min/1E6)

// known answers, use as guide
COMPOUND	NUMERIC RESULT
N#C[C@@H]1CSCN1C(=O)CNC(=O)c1ccnc2ccc(-n3ccc4c(F)cc(F)cc43)cc12 [Example 119]	27
COC[C@@H]1CN(c2ccc3nccc(C(=O)NCC(=O)N4CSC[C@H]4C#N)c3c2)CCO1 [Example 93]	2.6
N#C[C@@H]1CSCN1C(=O)CNC(=O)c1ccnc2ccc(N3CC(Cc4ccc(Cl)cc4)C3)cc12 [Example 187]	140
N#C[C@@H]1CSCN1C(=O)CNC(=O)c1ccnc2ccc(N3CC[C@@H](F)C3)cc12 [Example 52]	21
N#C[C@@H]1CSCN1C(=O)CNC(=O)c1ccnc2ccc(N3CCC(=O)CC3)cc12 [Example 230]	2.8
N#C[C@@H]1CSCN1C(=O)CNC(=O)c1ccnc2ccc(N3CC4(CCS4)C3)cc12 [Example 222]	4.2

1. Cc1ncccc1-c1ccc2nccc(C(=O)NCC(=O)N3CSC[C@H]3C#N)c2c1 [Example 128]
2. N#C[C@@H]1CSCN1C(=O)CNC(=O)c1ccnc2ccc(N3CCCC[C@H]3CF)cc12 [Example 45]
q: Returns: the label, 1 or 2 , whose recorded rHep CLint is the lower number. Respond with the label that goes with your answer.
a: 1

P. N#C[C@@H]1CSCN1C(=O)CNC(=O)c1ccnc2ccc(N3CC(F)C3)cc12 [Example 21]
Q. N#C[C@@H]1CSCN1C(=O)CNC(=O)c1ccnc2ccc(N3CCOc4ccccc43)cc12 [Example 6]
R. CS(=O)(=O)C[C@H]1CN(c2ccc3nccc(C(=O)NCC(=O)N4CSC[C@H]4C#N)c3c2)CCO1 [Example 92]
q: Rank items: key rHep CLint, increasing. Present the labels in the sequence the task asks for.
a: R, P, Q
(R: 1.7 μL/min/1E6, P: 17 μL/min/1E6, Q: 100 μL/min/1E6)
